# protocol details: Liver microsomal metabolic stability, rat liver microsomes (RLM)
# test conditions: rat, liver microsomes, t1/2 (min) in RLM, 1 μM compound, 1 mg/mL microsomes, NADPH
# half-life at 1 μM listing for each entry below

compound: COc1ncnc(C2CC2)c1-c1nc2n(n1)CCC(=O)N2[C@H](C)c1ccc(-c2nc(C(F)(F)F)cn2C(C)C)c(F)c1
half-life at 1 μM: > 25 min
//
compound: CCn1cc(C(F)(F)F)nc1-c1ccc(CN2C(=O)CCn3nc(-c4c(Cl)cnn4C(C)C)c(C#N)c32)cc1
half-life at 1 μM: > 25 min
//
compound: CCn1cc(C(F)(F)F)nc1-c1ccc([C@@H](C)n2c(=O)ccn3nc(-c4c(OC)ncnc4C4CC4)nc23)cc1F
half-life at 1 μM: > 25 min
//
compound: CCn1cc(C(F)(F)F)nc1-c1ccc([C@H](C)N2C(=O)CCn3nc(-c4c(OC)ncnc4C4CC4)nc32)cc1Cl
half-life at 1 μM: < 25 min
//
compound: COc1ccnc(C(C)C)c1-c1cc2n(n1)CCC(=O)N2Cc1ccc(-c2nc(C(F)(F)F)cn2C)cc1
half-life at 1 μM: < 25 min
//
compound: CCn1cc(C(F)(F)F)nc1-c1c(F)cc(CN2C(=O)CCn3nc(-c4c(OC)ncnc4C4CC4)nc32)cc1OC
half-life at 1 μM: > 25 min
//
compound: CCn1cc(C(F)(F)F)nc1-c1ccc(NC2CCCn3nc(-c4c(Cl)cnn4C(C)C)cc32)cc1OC (stereo not shown)
half-life at 1 μM: > 25 min
